Data provenance: the supplement of paper PMC10567573

B1: TRIM43 (parent)
chain: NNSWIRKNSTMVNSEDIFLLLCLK

variants of: B1; experiment: protein stability index of a GFP-peptide fusion (GPS, HEK-293T) (PSI 1-6); higher = more stable; details: c terminus: a fixed tail appended;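 note: lentivirally expressed fusions sorted by FACS into six bins by GFP to DsRed ratio, PSI derived from sequencing read proportions per bin multiplied by bin number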
Note to self: values exactly at 3 are YES. So protein stability index at or above 3 is YES, below is NO.

chain: NNSWIRKNSTMVNSEYIFLLLCLK [D16Y]
answer.label: NO
--
chain: NNSWIRKNSTMANSEDIFLLLCLK [V12A]
answer.label: NO
--
chain: NNSWIRKNSTMVNSEDIFLLLCLI [K24I]
answer.label: NO
--
chain: FNSWIRKNSTMVNSEDIFLLLCLK [N1F]
answer.label: YES
--
chain: QNSWIRKNSTMVNSEDIFLLLCLK [N1Q]
answer.label: NO
--
chain: NNSWIRKNSPMVNSEDIFLLLCLK [T10P]
answer.label: NO
--
chain: NNSWIRKNSYMVNSEDIFLLLCLK [T10Y]
answer.label: YES
--
chain: NNSWYRKNSTMVNSEDIFLLLCLK [I5Y]
answer.label: NO
--
chain: NNSQIRKNSTMVNSEDIFLLLCLK [W4Q]
answer.label: NO
--
chain: NNSWIRKNSTMVNSEDIFLLACLK [L21A]
answer.label: NO
--
chain: NNSWSRKNSTMVNSEDIFLLLCLK [I5S]
answer.label: YES
--
chain: NNSWIRKNSTMVNSEDIFLLLMLK [C22M]
answer.label: NO
--
chain: ANSWIRKNSTMVNSEDIFLLLCLK [N1A]
answer.label: NO
--
chain: NNSWIRKNSTMVNSEDNFLLLCLK [I17N]
answer.label: NO
--
chain: NNSWIRKNSTMVNFEDIFLLLCLK [S14F]
answer.label: NO
--
chain: NNSWIRKNSTMVNSEDIFLILCLK [L20I]
answer.label: NO
--
chain: NNSWIIKNSTMVNSEDIFLLLCLK [R6I]
answer.label: NO
--
chain: NNSWIRKNSTMVNSEDIFLLLCFK [L23F]
answer.label: YES
--
chain: NNSWIRKNSTMVNSEDIFLWLCLK [L20W]
answer.label: YES
--
chain: NNSWIRKNSTMVNSEDIFLLLCQK [L23Q]
answer.label: NO
--
chain: NNSWIRKNSTMVFSEDIFLLLCLK [N13F]
answer.label: NO
--
chain: NNSNIRKNSTMVNSEDIFLLLCLK [W4N]
answer.label: NO
--
chain: NNSWIRKNQTMVNSEDIFLLLCLK [S9Q]
answer.label: NO
--
chain: NNSWERKNSTMVNSEDIFLLLCLK [I5E]
answer.label: YES
--
chain: NNSWIRQNSTMVNSEDIFLLLCLK [K7Q]
answer.label: NO
--
chain: NNSWIRINSTMVNSEDIFLLLCLK [K7I]
answer.label: NO
--
chain: NNSWIRKMSTMVNSEDIFLLLCLK [N8M]
answer.label: NO
--
chain: NNSWIRKNSTMVNSEDIFLLLCLT [K24T]
answer.label: NO
--
chain: NNSWILKNSTMVNSEDIFLLLCLK [R6L]
answer.label: NO
--
chain: NNSWIRKNSTMVNMEDIFLLLCLK [S14M]
answer.label: NO
--
chain: NNSWIRKNSTMVNSEDGFLLLCLK [I17G]
answer.label: NO
--
chain: NNSWIYKNSTMVNSEDIFLLLCLK [R6Y]
answer.label: YES
--
chain: NNSWIRGNSTMVNSEDIFLLLCLK [K7G]
answer.label: YES
--
chain: NNMWIRKNSTMVNSEDIFLLLCLK [S3M]
answer.label: YES
--
chain: NNSWIRKNSTMVNSEEIFLLLCLK [D16E]
answer.label: YES
--
chain: NNSWIRKNSTMVNSEDTFLLLCLK [I17T]
answer.label: NO
--
chain: NNSWIRKNSTMVNSERIFLLLCLK [D16R]
answer.label: NO
--
chain: NNSWIEKNSTMVNSEDIFLLLCLK [R6E]
answer.label: NO
--
chain: NNSWIRKNSTMVNSEDEFLLLCLK [I17E]
answer.label: YES
--
chain: NNSWIRKNSTMVNSEDIFLKLCLK [L20K]
answer.label: NO
--
chain: NNSWIRKNSTMVNSVDIFLLLCLK [E15V]
answer.label: YES
--
chain: NNSWIRKNSTMVNSECIFLLLCLK [D16C]
answer.label: YES
--
chain: NNSWIRKNSTMVNSQDIFLLLCLK [E15Q]
answer.label: YES
--
chain: NQSWIRKNSTMVNSEDIFLLLCLK [N2Q]
answer.label: NO
--
chain: NNYWIRKNSTMVNSEDIFLLLCLK [S3Y]
answer.label: YES
--
chain: NNSWIRKNSTMVNSEIIFLLLCLK [D16I]
answer.label: NO
--
chain: NNSWIRKNSTMVNSEDIFLLQCLK [L21Q]
answer.label: NO
--
chain: NNSWIRKNSTMVNSEDIKLLLCLK [F18K]
answer.label: NO
--
chain: NISWIRKNSTMVNSEDIFLLLCLK [N2I]
answer.label: NO
--
chain: NNSWIRKNSTMVNSEDIFLLLCKK [L23K]
answer.label: NO
--
chain: NNSWIRKNSTHVNSEDIFLLLCLK [M11H]
answer.label: NO
--
chain: NNSWIRKNSTMVNVEDIFLLLCLK [S14V]
answer.label: YES
--
chain: NNSWIRKNSTMVNSEDIFLLLCWK [L23W]
answer.label: YES
--
chain: NNSWIRKNSTMVNSEDIFLLLCLN [K24N]
answer.label: NO
--
chain: NNSWIRKNSTMVNSEDIFLLRCLK [L21R]
answer.label: NO
--
chain: NNSWIRKNSTMVNSHDIFLLLCLK [E15H]
answer.label: NO
--
chain: NNSWIRKNSTMVNSEDIMLLLCLK [F18M]
answer.label: YES
--
chain: NNSWIRKNSTMVNIEDIFLLLCLK [S14I]
answer.label: NO
--
chain: NNSWIRKNSTNVNSEDIFLLLCLK [M11N]
answer.label: NO
--
chain: NNSWIRKNSTMVNSEDIFSLLCLK [L19S]
answer.label: NO
--
chain: NNKWIRKNSTMVNSEDIFLLLCLK [S3K]
answer.label: NO
--
chain: NNSWIRKNSTMVNSEDQFLLLCLK [I17Q]
answer.label: YES
--
chain: NNSWIRKPSTMVNSEDIFLLLCLK [N8P]
answer.label: NO
--
chain: NNSWIRKNSTMGNSEDIFLLLCLK [V12G]
answer.label: NO
--
chain: NNSWIRKNSRMVNSEDIFLLLCLK [T10R]
answer.label: NO
--
chain: NNSWIRKNSTMVNYEDIFLLLCLK [S14Y]
answer.label: NO
--
chain: NNSWIRKNSTMVNHEDIFLLLCLK [S14H]
answer.label: NO
--
chain: NNSWIVKNSTMVNSEDIFLLLCLK [R6V]
answer.label: NO
--
chain: NNSWIRKNITMVNSEDIFLLLCLK [S9I]
answer.label: YES
--
chain: NNSWIRKNSVMVNSEDIFLLLCLK [T10V]
answer.label: NO
--
chain: NNSWIRKNSTMVNSEDIFPLLCLK [L19P]
answer.label: NO
--
chain: NNSWIRKNSTMVNSEDDFLLLCLK [I17D]
answer.label: NO
--
chain: NNSWIRKNNTMVNSEDIFLLLCLK [S9N]
answer.label: NO
--
chain: NNSWIRKNSTMVNSEDIFLTLCLK [L20T]
answer.label: NO
--
chain: NNSWIRKNWTMVNSEDIFLLLCLK [S9W]
answer.label: YES
--
chain: NNSWMRKNSTMVNSEDIFLLLCLK [I5M]
answer.label: NO
--
chain: NNSWIRKNSTMVNSEDIFELLCLK [L19E]
answer.label: NO
--
chain: NHSWIRKNSTMVNSEDIFLLLCLK [N2H]
answer.label: NO
--
chain: NNSWIRKNSTMVNSEDIFLLLILK [C22I]
answer.label: NO
--
chain: NNSWICKNSTMVNSEDIFLLLCLK [R6C]
answer.label: YES
--
chain: NNVWIRKNSTMVNSEDIFLLLCLK [S3V]
answer.label: NO
--
chain: NNSWIRKNSTMVNSEDYFLLLCLK [I17Y]
answer.label: NO
